# test_details: Mouse PK in BALB/c mice
# measurement_setup: BALB/c SCID, in vivo, po

>  <molecule>
C[C@H]1COCCN1c1nc(NCc2cccnc2C(F)(F)F)c2cccnc2n1 [AWZ1066S]

>  <bioavailability>
54 to 91%

$$$$

---

# Test system: CYP3A4
# test_details: CYP3A4 induction
# Assay type: in vitro ADME
# measurement_setup: human
pIC50: −log10 of the molar value.

>  <compound>
C[C@H]1COCCN1c1nc(NCc2cccnc2C(F)(F)F)c2cccnc2n1 [AWZ1066S]

>  <pIC50>
4.43

$$$$

---

# test_details: pKa
# Assay type: physicochemical

>  <molecule>
C[C@H]1COCCN1c1nc(NCc2cccnc2C(F)(F)F)c2cccnc2n1 [AWZ1066S]

>  <pKa>
5.6

$$$$
